Source listed as patent US9980943B2.

# System: β-galactosidase in CMV-LacZ C2C12 myotubes
# measurement description: CMV-LacZ secondary screen in C2C12 myotubes (β-Gal stabilizing assay)
# Type: cell-based, mouse
# measurement conditions: Mus musculus, C2C12, read-out: CMV-LACZ in Myotubes, signal relative to DMSO, 5 uM; C2C12 CMV-LacZ myotubes; fold relative to DMSO
Respond with Yes for fold induction at 5 µM values of 0.9 and above, No for values below.

{"columns": ["smiles input", "assigned class"],
 "data": [
  ["COc1ccc(Nc2ncnc3ccc(C)cc23)cc1", "No"],
  ["COc1cccc(NC(=O)c2ccc3c(c2)CCCC3)c1", "Yes"],
  ["Nc1nccc(-c2ccc(-n3cnc4ccccc43)cc2)n1", "Yes"],
  ["COc1cc(C)c(NC(=O)COc2ccc3c(c2)OCO3)cc1C", "Yes"],
  ["CC1(C)Cc2c(ccc3ccccc23)C(=O)N1", "No"]
]}

---

Some molecules, each annotated with its measured Emax.
# System: α7 integrin (LacZ reporter in α7LacZ+/− myoblasts)
# measurement description: qHTS of the LOPAC library and MLSMR (online screen, α7LacZ+/− myoblasts)
# measurement conditions: Mus musculus, Myoblast, read-out: Max Response [%]
reported metric: Emax (%)

{"columns": ["molecule", "reported metric", "meas value"],
 "data": [
  ["O=C(CSc1nnc(C2CC2)n1C1CC1)c1cccs1", "Emax", 70.2],
  ["CCNC(=O)COC(=O)c1cc(-c2ccco2)nc2ccccc12", "Emax", 48.1],
  ["COc1ccc(O)c(/C=N/NC(=O)c2cc(O)nc3ccccc23)c1", "Emax", 46.8],
  ["O=C(CCc1ccccc1)c1nnc(-c2ccccc2)o1", "Emax", 99.5],
  ["CC(C)c1ccc(NC(=O)CN2C(=O)c3ccccc3S2(=O)=O)cc1", "Emax", 67.1],
  ["Cc1nc2c([nH]1)OC(N)=C(C#N)C21CCN(Cc2ccccc2)CC1", "Emax", 133],
  ["Cc1c(C(=O)O)cccc1-n1c(C)cc(/C=N/Nc2ccc([N+](=O)[O-])cn2)c1C", "Emax", 88.7],
  ["COC(=O)c1ccccc1NC(=O)c1cc[n+]([O-])cc1", "Emax", 56.3],
  ["Cc1c(C(=O)N2CCCCC2)c(S(=O)(=O)Nc2cccc(Br)c2)c(C)n1C", "Emax", 60.5],
  ["CN(C)S(=O)(=O)c1ccc(C(=O)Nc2nc3ccccc3[nH]2)cc1", "Emax", 84.9],
  ["NS(=O)(=O)c1ccc(NC(=O)c2ccc(CNS(=O)(=O)c3cc(C(F)(F)F)ccc3Cl)cc2)cc1", "Emax", 73.3],
  ["COCc1c(C(=O)N/N=C(\\C)c2ccc(OCc3ccccc3)cc2)nnn1-c1nonc1N", "Emax", 80.8],
  ["O=C(Nc1cc(Br)ccc1O)C1CC(c2ccccc2Cl)=NO1 (stereo not drawn)", "Emax", 141],
  ["CC1CCCCC12NC(=O)N(CC(=O)OCc1cccc(F)c1)C2=O (stereo not drawn)", "Emax", 142],
  ["c1ccc(CN2CCCC3(CCCN(Cc4nc(CC5CC5)no4)C3)C2)cc1 (stereo not drawn)", "Emax", 46.2],
  ["CCCC(=O)Nc1ccccc1NC(=O)c1ccc(OCC)cc1", "Emax", 91.2],
  ["CC(=O)c1ccc(N(C(=O)CNC(=O)c2ccco2)C(C(=O)NC2CCCC2)c2ccc(C)o2)cc1 (stereo not drawn)", "Emax", 75.5],
  ["CC(C)(CC(=O)O)CC(=O)N1CCCN(c2nccc(C(F)(F)F)n2)CC1", "Emax", 108],
  ["COc1ccc(N(CC(=O)NCCC(C)C)C(=O)c2snc(C(=O)NC3CCCCC3)c2N)c(OC)c1", "Emax", 125],
  ["CCCOc1nc(SCCC)nc2c1cnn2-c1ccccc1", "Emax", 64.3],
  ["O=C(Nc1ccc(N2CCN(C(=O)c3ccccc3F)CC2)cc1)c1cncc(Br)c1", "Emax", 103],
  ["COc1ccc(CNC(=O)COC(=O)CCc2c[nH]c3ccccc23)cc1", "Emax", 83.9],
  ["Cc1cc(C(=O)Nc2cccc3ccccc23)c(C)o1", "Emax", 66],
  ["COc1ccc2oc(C[S+]([O-])c3ccccc3)c(C(=O)O)c2c1 (stereo not drawn)", "Emax", 174],
  ["COc1ccc(-c2cc(COc3ccccc3)on2)cc1", "Emax", 88.1],
  ["COc1cccc(C(=O)NCC(=O)N2CCC3(CC2)NCCc2[nH]cnc23)c1", "Emax", 102],
  ["O=C(NC(=S)NCCC1=CCCCC1)c1ccc(Br)o1", "Emax", 50.2],
  ["COc1ccc(C(=O)N/C(=C/c2cccnc2)C(=O)N2CCN(C)CC2)cc1OC", "Emax", 75],
  ["COc1cc(NC(=O)C2C3C=CC(C3)C2C(=O)O)ccc1NC(=O)c1ccccc1 (stereo not drawn)", "Emax", 68.9],
  ["Cc1cc(N2CCOCC2)nc2ccc(N/C(S)=N/Cc3ccc4c(c3)OCO4)cc12", "Emax", 107],
  ["Cc1ccc(C2=C(CC(=O)O)C(=O)CC2)cc1", "Emax", 80.4],
  ["CC1CCN(S(=O)(=O)c2ccc(S(=O)(=O)N3CCCC3)cc2)CC1", "Emax", 132],
  ["Cc1nc2c(cnn2-c2ccccc2)c(=O)n1/N=C/c1ccccc1", "Emax", 68.4],
  ["CCS(=O)(=O)N1CCCC(C(=O)c2ccc(OC)cc2C)C1 (stereo not drawn)", "Emax", 149],
  ["O=C(Nc1ccccc1F)c1ccc([N+](=O)[O-])s1", "Emax", 215],
  ["C/N=C(\\S)N1CCC(NC(=O)C(Cc2ccc(F)cc2)NC(C)=O)CC1 (stereo not drawn)", "Emax", 84.7]
]}

---

# System: α7 integrin (LacZ reporter in α7βgal+/− myoblasts)
# measurement description: Myoblast α7+/LacZ integrin FDG assay (Burkin assay in myoblasts, 96-well)
# Type: cell-based, mouse
# measurement conditions: 1 uM; α7+/LacZ myoblasts, 96-well
reported metric: Burkin Assay in Myoblasts, signal relative to DMSO

{"columns": ["molecule", "meas value"],
 "data": [
  ["CC(=O)Nc1ccc(NC(=O)C/C(C)=N/NC(=O)COc2cc(C)c(Br)cc2Br)cc1 [MLS000912562-01]", 0.929],
  ["Cc1ccsc1CN(C)CC(=O)Nc1ccc([N+](=O)[O-])cc1Cl [MLS001172822-01]", 1.351],
  ["Cn1c(=O)c2c(nc(Sc3ncnn3CC(=O)NC3CCCCC3)n2C)n(C)c1=O [MLS000663651-01]", 1.059]
]}

---

# Test system: α7 integrin (LacZ reporter in α7βgal+/− myoblasts)
# measurement description: Myoblast α7+/LacZ integrin FDG assay (Burkin assay in myoblasts, 96-well)
# Format: cell-based, mouse
# measurement conditions: 5 uM; SU9516 analogs, 96-well, N=3-6
reported metric: Burkin Assay in Myoblasts, value relative to DMSO

{"columns": ["smiles input", "meas value"],
 "data": [
  ["O=Nc1c(-c2c(O)[nH]c3cc(Br)ccc23)[nH]c2ccccc12", 0.5722],
  ["CCn1c(O)c(C(C#N)=C2N=c3ccccc3=N2)c2ccccc21", 0.8067],
  ["Cc1cc(C)c(/C=C2\\C(=O)Nc3ccccc32)[nH]1", 0.7532],
  ["CCN(CC)CCNC(=O)c1c(C)[nH]c(/C=C2\\C(=O)Nc3ccc(F)cc32)c1C", 0.529],
  ["O=C1C(c2c(O)[nH]c3ccccc23)=Nc2ccccc21", 0.606]
]}

---

# System: α7 integrin (LacZ reporter in α7+/LacZ myotubes)
# measurement description: Myotube α7 integrin FDG assay (Burkin assay in myotubes, 96-well)
# Type: cell-based, mouse
# measurement conditions: myotubes, 5 uM
Some compounds, each annotated with its measured Burkin Assay in Myotubes, α7 integrin LacZ reporter signal relative to DMSO.
reported metric: Burkin Assay in Myotubes, α7 integrin LacZ reporter signal relative to DMSO

{"columns": ["smiles input", "meas value"],
 "data": [
  ["Cc1cccc(NCC(=O)N/N=C\\c2ccccn2)c1", 1.084],
  ["O=C(COC(=O)Cn1cnc2ccccc21)Nc1cccc([N+](=O)[O-])c1", 0.8583],
  ["CC(=O)Nc1ccc(-n2c(C)nc(=O)c(-c3ccccc3)c2C)cc1", 0.9535],
  ["CCOC(=O)c1cc(-c2cccs2)nc2c1c(C)nn2-c1ccccn1", 0.9257],
  ["Cn1c(=O)c2c(nc(Sc3ncnn3CC(=O)NC3CCCCC3)n2C)n(C)c1=O", 1.106],
  ["Cn1cc(CN(CCO)Cc2cccs2)c(-c2ccccc2F)n1", 1.1938],
  ["Cc1ccc(C(=O)N2CCN(S(=O)(=O)N3CCOCC3)CC2)cc1", 0.9767],
  ["COc1ccccc1CC(=O)Nc1cc(S(=O)(=O)N2CCOCC2)ccc1N1CCOCC1", 0.9697],
  ["CCc1nc2ccccc2c(C(=O)NCc2ccccc2)c1C", 1.132]
]}
